- SYSTEM UNDER TEST: UniProtKB P21452
- Sequence (P21452 whole entry): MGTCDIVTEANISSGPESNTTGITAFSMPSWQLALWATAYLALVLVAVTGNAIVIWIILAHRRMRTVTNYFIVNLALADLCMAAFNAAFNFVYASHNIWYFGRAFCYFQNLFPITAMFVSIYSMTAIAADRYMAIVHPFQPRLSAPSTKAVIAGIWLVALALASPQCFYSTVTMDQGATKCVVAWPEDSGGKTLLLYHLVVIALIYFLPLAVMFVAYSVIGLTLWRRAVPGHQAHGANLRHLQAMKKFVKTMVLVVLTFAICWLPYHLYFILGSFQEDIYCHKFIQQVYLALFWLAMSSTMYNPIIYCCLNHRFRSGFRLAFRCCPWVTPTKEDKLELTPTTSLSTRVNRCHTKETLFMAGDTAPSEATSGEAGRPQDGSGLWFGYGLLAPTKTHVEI
- EXPERIMENTAL PROTOCOL: In vitro binding affinity for Tachykinin receptor 2 of human-CHO cells using 125 I-NKA radioligand
- Type: cell-based
VALUE KIND: IC50 (nM)
Dear colleague, please return just the value in nM, with no unit written.

>>> observed_measurement("CN(C(=O)c1cc(C(F)(F)F)cc(C(F)(F)F)c1)[C@@H](/C=C/C(=O)NC1(C(N)=O)CCCCC1)Cc1ccc(Cl)cc1")
66
>>> observed_measurement("CN(C(=O)c1cc(C(F)(F)F)cc(C(F)(F)F)c1)[C@@H](/C=C/C(=O)N[C@@H]1CCCCNC1=O)Cc1cn(C)c2ccccc12")
24
>>> observed_measurement("CN(C(=O)c1cc(C(F)(F)F)cc(C(F)(F)F)c1)N(CCC(=O)N[C@@H]1CCCCNC1=O)Cc1ccc2ccccc2c1")
55
>>> observed_measurement("CN(C(=O)c1cc(C(F)(F)F)cc(C(F)(F)F)c1)[C@@H](/C=C/C(=O)N[C@@H]1CCCCNC1=O)Cc1ccc(Cl)c(Cl)c1 [DNK333]")
5.5
>>> observed_measurement("CN(C(=O)c1cc(C(F)(F)F)cc(C(F)(F)F)c1)[C@@H](/C=C/C(=O)N[C@@H]1CCCCNC1=O)Cc1cc(Cl)c(Cl)s1")
17
>>> observed_measurement("CN(C(=O)c1cc(C(F)(F)F)cc(C(F)(F)F)c1)[C@@H](/C=C/C(=O)N[C@@H]1CCCCNC1=O)Cc1cc(Br)c(Br)s1")
26

Could you share what IC50 was measured for `CN(C(=O)c1cc(C(F)(F)F)cc(C(F)(F)F)c1)N(CCC(=O)N[C@@H]1CCCCNC1=O)Cc1cc(Br)c(Br)s1` , tested on UniProtKB P21452? 19.5

State its IC50 on UniProtKB P21452: `CN(C(=O)c1cc(C(F)(F)F)cc(C(F)(F)F)c1)N(CCC(=O)N[C@@H]1CCCCNC1=O)Cc1ccc(Cl)c(Cl)c1` 5.5

Given the entry `CN(C(=O)c1cc(C(F)(F)F)cc(C(F)(F)F)c1)[C@@H](/C=C/C(=O)N[C@@H]1CCCCNC1=O)Cc1ccc2ccccc2c1` , what IC50 was observed with UniProtKB P21452? 60

IC50 of `CN(C(=O)c1cc(C(F)(F)F)cc(C(F)(F)F)c1)[C@@H](/C=C/C(=O)NC1CCCCCC1)Cc1ccc(Cl)cc1` on UniProtKB P21452? 203
